biological target: NS3 protease (Hepatitis C virus subtype 1b, UniProt Q0ZMF1, A156V); experiment: Inhibition of Hepatitis C virus genotype 1b NS3/4A protease A156V mutant assessed as substrate cleavage using Ac-C(Eu)DDMEEAbu(COO)ASK(QSY7)-amide as substrate incubated for 30 mins prior to substrate addition by time-resolved fluorescence assay
IC50 vs 0.7 nM: less than gives class 1; not less than gives class 0.

Check out these entries, answers already filled in.
C=C[C@@H]1C[C@]1(NC(=O)[C@@H]1C[C@@H]2CN1C(=O)[C@H](C1CCCCC1)NC(=O)O[C@@H]1C[C@H]1CCCCCc1c(nc3ccccc3c1OC1CCNCC1)O2)C(=O)NS(=O)(=O)C1(C)CC1 ... class 1
C=C[C@@H]1C[C@]1(NC(=O)[C@@H]1C[C@@H]2CN1C(=O)[C@H](C1CCCCC1)NC(=O)O[C@@H]1C[C@H]1CCCCCc1c(nc3ccccc3c1OC1CCN(CC)CC1)O2)C(=O)NS(=O)(=O)C1(C)CC1 ... class 1

Threshold test, IC50 < 0.7 nM: `C=C[C@@H]1C[C@]1(NC(=O)[C@@H]1C[C@@H]2CN1C(=O)[C@H](C1CCCCC1)NC(=O)O[C@@H]1C[C@H]1CCCCCc1c(nc3ccccc3c1OC1CCN(CC3CC3)CC1)O2)C(=O)NS(=O)(=O)C1(C)CC1`
class 1

Threshold test, IC50 < 0.7 nM: `C=C[C@@H]1C[C@]1(NC(=O)[C@@H]1C[C@@H]2CN1C(=O)[C@H](C1CCCCC1)NC(=O)O[C@@H]1C[C@H]1CCCCCc1c(nc3ccccc3c1O[C@H]1C[C@H]3CC[C@@H](C1)N3C)O2)C(=O)NS(=O)(=O)C1(C)CC1`
class 1

Threshold test, IC50 < 0.7 nM: `C=C[C@@H]1C[C@]1(NC(=O)[C@@H]1C[C@@H]2CN1C(=O)[C@H](C(C)(C)C)NC(=O)O[C@@H]1C[C@H]1CCCCCc1c(nc3ccccc3c1O[C@@H]1C[C@H]3CC[C@@H](C1)N3CC)O2)C(=O)NS(=O)(=O)C1(C)CC1`
class 1

Threshold test, IC50 < 0.7 nM: `C=C[C@@H]1C[C@]1(NC(=O)[C@@H]1C[C@@H]2CN1C(=O)[C@H](C1CCCCC1)NC(=O)O[C@@H]1C[C@H]1CCCCCc1c(nc3ccccc3c1OC1CCOCC1)O2)C(=O)NS(=O)(=O)C1(C)CC1`
class 0

Threshold test, IC50 < 0.7 nM: `C=C[C@@H]1C[C@]1(NC(=O)[C@@H]1C[C@@H]2CN1C(=O)[C@H](C1CCCCC1)NC(=O)O[C@@H]1C[C@H]1CCCCCc1c(nc3ccccc3c1OCCCNC1CCC1)O2)C(=O)NS(=O)(=O)C1(C)CC1`
class 1

Threshold test, IC50 < 0.7 nM: `C=C[C@@H]1C[C@]1(NC(=O)[C@@H]1C[C@@H]2CN1C(=O)[C@H](C1CCCCC1)NC(=O)O[C@@H]1C[C@H]1CCCCCc1c(nc3ccccc3c1OC1CCN(CCOC)CC1)O2)C(=O)NS(=O)(=O)C1(C)CC1`
class 0
